meta.source: paper PMC11274943

For each of the molecules below, state its pIC50.
- experimental.target: P236L HIV-1 RT RNase H activity (Human immunodeficiency virus type 1 group M subtype B, UniProt P04585, P823L)
- assay.protocol: FRET-based RT RNase H cleavage assay, P236L RT
One number for each entry, as −log10 of the molar value.

Solved cases (4 shown):
| molecule | pIC50 |
| --- | --- |
| CCOC(=O)Cc1csc(-n2sc3ccccc3c2=O)n1 | 6.68 |
| CCN(CC)S(=O)(=O)c1cccc(-n2sc3ccccc3c2=O)c1 | 6.51 |
| Cn1sc2ccccc2c1=O [Compound 3, 2-methylbenzo[d]isothiazol-3(2H)-one] | 5.66 |
| O=c1c(O)ccccc1O [Compound 19619, reference compound] | 5.05 |

Param item = Cc1ccc(-n2sc3ccccc3c2=O)cc1S(=O)(=O)N1CCCCC1 ; retrieve measured pIC50.
6.66

---

- experimental.target: WT HIV-1 RT DNA-dependent DNA polymerase activity (Human immunodeficiency virus type 1 group M subtype B, UniProt P04585)
metric.name: pIC50
Numbers only, as −log10 of the molar value.

# return pIC50 for each item in the list
1. O=S(=O)(c1cccc(-c2nc3ccccc3s2)c1)N1CCCC1
2. CCOC(=O)Cc1csc(-n2sc3ccccc3c2=O)n1
3. Cc1ccc(-n2sc3ccccc3c2=O)cc1S(=O)(=O)N1CCCCC1
4. O=c1c2ccccc2sn1-c1ccc(S(=O)(=O)N2CCCC2)cc1
5. O=c1c2ccccc2sn1-c1ccc(S(=O)(=O)N2CCCCC2)cc1

4.21
5.58
5.22
4.60
4.91

Param item = CCN(CC)S(=O)(=O)c1cccc(-n2sc3ccccc3c2=O)c1 ; retrieve measured pIC50.
5.96

---

- Test system: K101E HIV-1 RT RNase H activity
- assay.protocol: FRET-based RT RNase H cleavage assay, K101E RT
- Assay type: biochemical
- condition.notes: K101E RT; fold resistance IC50 mutant/IC50 WT
metric.name: Inhibition of RT RNase H Activity Fold-R
One number for each entry.

Solved cases (4 shown):
| compound | metric.name | number |
| --- | --- | --- |
| O=c1c(O)ccccc1O [Compound 19619, reference compound] | Inhibition of RT RNase H Activity Fold-R | 0.9 |
| CCOC(=O)Cc1csc(-n2sc3ccccc3c2=O)n1 | Inhibition of RT RNase H Activity Fold-R | 2.2 |
| CCN(CC)S(=O)(=O)c1cccc(-n2sc3ccccc3c2=O)c1 | Inhibition of RT RNase H Activity Fold-R | 0.3 |
| Cc1ccc(-n2sc3ccccc3c2=O)cc1S(=O)(=O)N1CCCCC1 | Inhibition of RT RNase H Activity Fold-R | 1.6 |

Could you now consider this next compound?
Param item = Cn1sc2ccccc2c1=O [Compound 3, 2-methylbenzo[d]isothiazol-3(2H)-one] ; retrieve measured Inhibition of RT RNase H Activity Fold-R.
0.9

---

Here we list compounds with their recorded pIC50 when tested on UniProt:P04585.
Numbers only, as −log10 of the molar value.

| compound | experimental.target | metric.name | number |
| --- | --- | --- | --- |
| Cc1ccc(-n2sc3ccccc3c2=O)cc1S(=O)(=O)N1CCCCC1 | UniProt:P04585 | pIC50 | 6.80 |
| O=c1c(O)ccccc1O [Compound 19619, reference compound] | UniProt:P04585 | pIC50 | 5.06 |

Param item = Cn1sc2ccccc2c1=O [Compound 3, 2-methylbenzo[d]isothiazol-3(2H)-one] ; retrieve measured pIC50.
5.60
